- Measured target: PLY (Streptococcus pneumoniae serotype 4, UniProt P0C2J9)
- Sequence (P0C2J9 whole entry, looked up): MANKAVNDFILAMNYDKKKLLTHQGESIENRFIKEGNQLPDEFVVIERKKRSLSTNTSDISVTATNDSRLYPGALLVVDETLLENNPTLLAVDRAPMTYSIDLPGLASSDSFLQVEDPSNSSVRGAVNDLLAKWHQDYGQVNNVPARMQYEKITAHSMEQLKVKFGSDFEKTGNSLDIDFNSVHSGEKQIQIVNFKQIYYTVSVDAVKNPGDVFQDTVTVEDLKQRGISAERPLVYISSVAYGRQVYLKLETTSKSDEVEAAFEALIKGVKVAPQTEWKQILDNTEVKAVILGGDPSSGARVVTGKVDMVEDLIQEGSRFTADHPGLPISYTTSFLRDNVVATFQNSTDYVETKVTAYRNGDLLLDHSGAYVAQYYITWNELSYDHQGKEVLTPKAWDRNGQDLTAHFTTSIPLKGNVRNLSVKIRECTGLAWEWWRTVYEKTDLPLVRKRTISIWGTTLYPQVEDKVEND
- Format: cell-based
- Conditions: read-out: ED50 (median effective dose) vs purified PLY; human, blood, 60 min
No end group written: not given here.
Readout: IC50 (µM)
Give bare numbers, in µM.

Which measured IC50 value corresponds to FTWSDGSPVSYEN [P2] ? 6.6

====

- Measured target: LLO (Listeria monocytogenes serovar 1/2a, UniProt P13128)
- Sequence (P13128 25-529): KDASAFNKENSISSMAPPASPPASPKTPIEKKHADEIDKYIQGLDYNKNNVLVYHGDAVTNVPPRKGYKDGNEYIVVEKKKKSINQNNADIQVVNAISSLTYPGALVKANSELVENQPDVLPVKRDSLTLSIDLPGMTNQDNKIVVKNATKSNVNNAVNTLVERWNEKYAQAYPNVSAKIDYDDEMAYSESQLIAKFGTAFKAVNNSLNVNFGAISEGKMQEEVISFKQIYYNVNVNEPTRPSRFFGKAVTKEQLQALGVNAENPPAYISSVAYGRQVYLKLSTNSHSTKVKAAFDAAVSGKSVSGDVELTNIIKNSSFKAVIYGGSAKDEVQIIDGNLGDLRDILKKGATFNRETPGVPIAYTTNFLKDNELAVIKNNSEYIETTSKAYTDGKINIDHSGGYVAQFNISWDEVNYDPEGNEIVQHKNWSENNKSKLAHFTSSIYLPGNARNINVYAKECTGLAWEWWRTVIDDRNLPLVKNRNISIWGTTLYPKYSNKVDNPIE
- Measurement protocol: Hemolysis assay with purified LLO
- Conditions: read-out: ED50 (median effective dose) vs purified LLO; hemolysis, 1 μg/ml toxin; regression analysis
No end group written: not given here.
Readout: IC50 (µM)
Answers are plain numbers, in µM.

Lab note: need IC50 for FTWSDGSPVSYEN [P2] on LLO (Listeria monocytogenes serovar 1/2a, UniProt P13128), anyone have it? 22.3
